All figures here come from patent US5852007A.

target: Recombinant human calpain I (Homo sapiens, UniProt P07384); construct: made in house; assay: Inhibition of calpain I activity; format: biochemical; conditions: Table III; 0.1 uM
Sequence (P07384 whole entry): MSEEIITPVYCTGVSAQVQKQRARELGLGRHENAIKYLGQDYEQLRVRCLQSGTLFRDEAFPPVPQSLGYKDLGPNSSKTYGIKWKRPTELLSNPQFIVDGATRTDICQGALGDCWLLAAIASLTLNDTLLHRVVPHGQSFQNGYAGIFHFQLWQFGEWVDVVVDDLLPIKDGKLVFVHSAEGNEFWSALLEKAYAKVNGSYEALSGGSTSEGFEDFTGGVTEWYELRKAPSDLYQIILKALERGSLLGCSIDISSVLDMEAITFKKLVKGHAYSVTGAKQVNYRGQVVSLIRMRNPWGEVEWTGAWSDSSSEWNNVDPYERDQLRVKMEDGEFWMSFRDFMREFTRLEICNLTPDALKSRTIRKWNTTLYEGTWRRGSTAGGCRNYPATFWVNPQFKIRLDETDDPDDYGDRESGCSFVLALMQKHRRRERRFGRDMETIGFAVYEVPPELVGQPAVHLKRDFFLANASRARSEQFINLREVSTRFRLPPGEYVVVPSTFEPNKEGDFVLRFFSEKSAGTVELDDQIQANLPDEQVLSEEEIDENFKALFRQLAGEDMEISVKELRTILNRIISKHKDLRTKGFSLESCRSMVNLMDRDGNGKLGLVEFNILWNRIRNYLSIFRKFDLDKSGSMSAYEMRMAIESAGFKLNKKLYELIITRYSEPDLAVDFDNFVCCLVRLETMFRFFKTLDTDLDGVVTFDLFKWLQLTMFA
Square brackets hold non-standard residues; d marks the D form. Peptide text beside a SMILES is read from it. * marks the point of attachment. ξ: configuration not given here. d(αMeF) = C[C@@](N)(Cc1ccccc1)C(=O)O; 2Thi = N[C@@H](Cc1cccs1)C(=O)O; ξF = NC(Cc1ccccc1)C(=O)O; Ms = CS(=O)(=O)*
QUANTITY_MEASURED: inhibition at 0.1 µM

{"COMPOUND": "O=C[C@H](Cc1ccccc1)NC(=O)[C@@H](Cc1ccccc1)NS(=O)(=O)c1ccc2ccccc2c1", "TEST_SYSTEM": "Recombinant human calpain I (Homo sapiens, UniProt P07384)", "inhibition at 0.1 µM": "91%"}
{"COMPOUND": "CS(=O)(=O)N[C@H](Cc1c[nH]c2ccccc12)C(=O)N[C@H](C=O)Cc1ccccc1 [Compound 77] (Ms-[dW]-Phe-aldehyde)", "TEST_SYSTEM": "Recombinant human calpain I (Homo sapiens, UniProt P07384)", "inhibition at 0.1 µM": "91%"}
{"COMPOUND": "O=C[C@H](Cc1ccccc1)NC(=O)[C@@H](Cc1ccccc1)NS(=O)(=O)c1cccs1", "TEST_SYSTEM": "Recombinant human calpain I (Homo sapiens, UniProt P07384)", "inhibition at 0.1 µM": "91%"}
{"COMPOUND": "CS(=O)(=O)N[C@H](COCc1ccccc1)C(=O)N[C@@H](Cc1ccccc1)C(O)OCc1ccccc1 (some centres unmarked)", "TEST_SYSTEM": "Recombinant human calpain I (Homo sapiens, UniProt P07384)", "inhibition at 0.1 µM": "91%"}
{"COMPOUND": "CS(=O)(=O)N[C@@H](Cc1cccs1)C(=O)N[C@H](C=O)Cc1ccccc1 [Compound 99] (Ms-[2Thi]-Phe-aldehyde)", "TEST_SYSTEM": "Recombinant human calpain I (Homo sapiens, UniProt P07384)", "inhibition at 0.1 µM": "66%"}

Reported inhibition at 0.1 µM for `CS(=O)(=O)N[C@H](COCc1ccccc1)C(=O)N[C@@H](Cc1ccccc1)C1N(c2ccccc2)CCN1c1ccccc1` was 63%

Reported inhibition at 0.1 µM for C[C@](Cc1ccccc1)(NS(C)(=O)=O)C(=O)NC(C=O)Cc1ccccc1 (some centres unmarked) [Compound 105] (Ms-[d(αMeF)]-[ξF]-aldehyde) was 9%

Reported inhibition at 0.1 µM for `Cc1nn(C)c(Cl)c1S(=O)(=O)N[C@H](COCc1ccccc1)C(=O)N[C@H](C=O)Cc1ccccc1` was 30%

---

biological target: Recombinant human calpain I (Homo sapiens, UniProt P07384); construct: made in house; experiment: Inhibition of calpain I activity; assay type: biochemical; conditions: Table III; 0.1 uM
Square brackets hold non-standard residues; d marks the D form. Peptide text beside a SMILES is read from it. * marks the point of attachment. ξ: configuration not given here. ξαMeL = CC(C)CC(C)(N)C(=O)O; Bn = c1ccc(C*)cc1; Ms = CS(=O)(=O)*
QUANTITY_MEASURED: inhibition at 0.1 µM

Example results:
{"COMPOUND": "CC(C)CC(C)(C=O)NC(=O)[C@@H](COCc1ccccc1)NS(C)(=O)=O (stereo partly shown) [Compound 110] (Ms-[dS](Bn)-[ξαMeL]-aldehyde)", "MEASURED": "10%"}
{"COMPOUND": "O=C[C@H](Cc1ccccc1)NC(=O)[C@H]1CCCN1S(=O)(=O)Cc1ccccc1 [Compound 102]", "MEASURED": "63%"}

Entry CCOC(OCC)[C@H](Cc1ccccc1)NC(=O)[C@@H](COCc1ccccc1)NS(C)(=O)=O [Compound 134] , tested on Recombinant human calpain I (Homo sapiens, UniProt P07384), has a reported inhibition at 0.1 µM of 0%

Entry CS(=O)(=O)N[C@H](COCc1ccccc1)C(=O)N[C@@H](Cc1ccccc1)C(O)S(=O)(=O)O (stereo partly shown) [Compound 128] , tested on Recombinant human calpain I (Homo sapiens, UniProt P07384), has a reported inhibition at 0.1 µM of 89%

Entry O=C[C@H](Cc1ccccc1)NC(=O)[C@@H](COCc1ccccc1)NS(=O)(=O)N1CCOCC1 [Compound 53] , tested on Recombinant human calpain I (Homo sapiens, UniProt P07384), has a reported inhibition at 0.1 µM of 25%

Entry O=C[C@H](Cc1ccccc1)NC(=O)[C@@H](COCc1ccccc1)NS(=O)(=O)c1ccccc1 [Compound 48] , tested on Recombinant human calpain I (Homo sapiens, UniProt P07384), has a reported inhibition at 0.1 µM of 87%

Entry CCS(=O)(=O)N[C@H](COCc1ccccc1)C(=O)N[C@H](C=O)Cc1ccccc1 [Compound 50] , tested on Recombinant human calpain I (Homo sapiens, UniProt P07384), has a reported inhibition at 0.1 µM of 95%
